Quick list: TGI per entry.
Tested on: HOP-92 NSCLC
Assay: NCI tumour cell line growth inhibition, 48 h

{"Molecule": "COc1ccc(CN2C(=O)/C(=C\\C(=O)c3ccc(OCCN4CCCCC4)cc3)c3ccccc32)cc1", "Tested system": "HOP-92 NSCLC", "Value measured": "3.89 µM"}
{"Molecule": "OC1[C@@H]2[C@@H](O)[C@H](O)[C@@H](O)N2C[C@@H]1O (some centres not stated)", "Tested system": "HOP-92 NSCLC", "Value measured": "> 100 µM"}
{"Molecule": "CC(C)(Cl)C(Br)CCC(C)(Cl)C(Br)CBr (configuration not stated)", "Tested system": "HOP-92 NSCLC", "Value measured": "46 µM"}
{"Molecule": "CCN(CC)CCOc1ccc(-c2nc3cc(Cl)ccc3s2)cc1", "Tested system": "HOP-92 NSCLC", "Value measured": "4.2 µM"}
{"Molecule": "Cc1cc(CC(O)c2ccc(Cl)c(Cl)c2)nc(=O)[nH]1 (configuration not stated)", "Tested system": "HOP-92 NSCLC", "Value measured": "49.5 µM"}

The value of TGI measured for the molecule Oc1cn(-c2ccc(Cl)cc2)nc1-c1nnc(-c2ccccc2)o1 turned out to be 80.6 µM

The value of TGI measured for the molecule CC(C)C(=O)[C@@]1(C)SC[C@H]2CCN=C21 turned out to be 75 µM

The value of TGI measured for the molecule COC(=O)C(=Cc1cc(OC)ccc1OC)C(=O)OC turned out to be 60 µM

----------
Tested on: EKVX NSCLC
Experiment: NCI tumour cell line growth inhibition, 48 h
Attribute measured: TGI (µM)
A number alone suffices; assume µM.

{"Molecule": "CC(C)CC1C(=O)NCCC(NC(=O)C(Cc2ccc(OC(C)(C)C)cc2)NC(=O)OC(C)(C)C)C(=O)NC(Cc2ccccc2)C(=O)NC(Cc2ccccc2)NC1=O (stereo not drawn)", "Units symbol": "µM", "TGI": 39.1}
{"Molecule": "CC(C)(Cl)C(Br)CCC(C)(Cl)C(Br)CBr (stereo not drawn)", "Units symbol": "µM", "TGI": 84.2}
{"Molecule": "COC(=O)C(=Cc1cc(OC)ccc1OC)C(=O)OC", "Units symbol": "µM", "TGI": 72.2}

Here's the next entry for you.
Here Cc1nc2c(-c3cnc(N)nc3)nc(N3CCOCC3)nc2n1C(C)C was tested on EKVX NSCLC, and its TGI came to 1.81

----------
Quick list: GI50 per entry.
Test system: BT-549 breast
Test: NCI tumour cell line growth inhibition, 48 h

Here C=C(CNCc1ccccc1)c1ccc(C(=O)Nc2ccccc2N)cc1 was tested on BT-549 breast, and its GI50 came to 15.4 µM

Here CCCCCCCCCCCCOC1C(C(COC2OC(C3COC(C)(C)O3)C3OC(C)(C)OC23)NC(=O)Nc2ccc(C(=O)O)cc2)OC2OC(C)(C)OC21 (stereo not given) was tested on BT-549 breast, and its GI50 came to 1.79 µM

Here C=C1C(=O)O[C@@H]2C[C@@H]1CC/C(C)=C/CC/C(C)=C/CC[C@@]2(C)O was tested on BT-549 breast, and its GI50 came to 21.1 µM

Here CCN(CC)CCOc1ccc(-c2nc3cc(Cl)ccc3s2)cc1 was tested on BT-549 breast, and its GI50 came to 1.83 µM

Here C=COCCCOc1ccccc1 was tested on BT-549 breast, and its GI50 came to > 100 µM

----------
System: CAKI-1 renal
Assay: NCI tumour cell line growth inhibition, 48 h
Quick list: TGI per entry.
A number alone suffices; assume µM.

Would you please look over these solved cases?
{"Compound": "Cc1cc(C)n(C(=C(C(Cl)=C(Cl)Cl)[N+](=O)[O-])n2nc(C)cc2C)n1", "TGI, µM": 8.38}
{"Compound": "COc1cc2nc(-c3ccc(Cl)cc3)cc(OCCCN3CCCCC3)c2cc1OC", "TGI, µM": 2.54}
{"Compound": "O=C(Cc1ccc(/C=C/C(=O)c2ncc[nH]2)cc1)Nc1cc(F)c(F)c(F)c1", "TGI, µM": 7.05}
{"Compound": "Cc1cc([N+](=O)[O-])ccc1Nc1cccc(Cl)c1C", "TGI, µM": 30.5}

Here's the next entry for you.
The value of TGI measured for the compound COC1(OC)CC2C(=O)N(Cc3ccccc3)C1C(S(=O)(=O)c1ccccc1)C2S(=O)(=O)c1ccccc1 (stereo not drawn) turned out to be 26.9

----------
Tested on: 786-0 renal
Test: NCI tumour cell line growth inhibition, 48 h
Could you label it Criterion met if measured TGI is 20 µM or higher, and Criterion not met otherwise?

# example entries with known answers
{"Molecule": "CCN(CC)CCC(=O)/C=C/c1ccccc1", "Qualitative label": "Criterion not met"}
{"Molecule": "CCCCS(=O)CCC(N)P(=O)(O)O (configuration not stated)", "Qualitative label": "Criterion met"}
{"Molecule": "CC(C)=CCNc1ncnc2c1ncn2C1OC(CO)C(O)C1O (configuration not stated)", "Qualitative label": "Criterion not met"}
{"Molecule": "NC(=O)NC1C(c2ccccc2)=C1c1ccccc1", "Qualitative label": "Criterion met"}
{"Molecule": "Cc1cc(C)nc(NC(=O)c2ccc(Br)s2)c1", "Qualitative label": "Criterion met"}
{"Molecule": "CC(C)c1ccc2c(c1)CC[C@@H]1[C@@](C)(C(=O)O)CCC[C@]21C", "Qualitative label": "Criterion not met"}
{"Molecule": "O=C(Nc1ccc(Cl)cc1F)c1ccccc1O", "Qualitative label": "Criterion met"}
{"Molecule": "C=C1C(=O)O[C@@H]2C[C@@H]1CC/C(C)=C/CC/C(C)=C/CC[C@@]2(C)O", "Qualitative label": "Criterion met"}

Task item: Check if TGI >= 20 µM (inclusive). Item: Cc1cc(N)c(C)c2c1[nH]c1ccc(O)cc12
Reply: Criterion met

Task item: Check if TGI >= 20 µM (inclusive). Item: O=c1[nH]c2c(nc1NC13CC4CC(CC(C4)C1)C3)c(=O)oc1ccccc12
Reply: Criterion met

Task item: Check if TGI >= 20 µM (inclusive). Item: C=C1C(=O)OC2CCN3CC=C(COC(=O)C(C)(O)C4(CO4)C1C)C23 (configuration not stated)
Reply: Criterion met

Task item: Check if TGI >= 20 µM (inclusive). Item: CC(C)CCN1c2nc(Nc3cc(F)c(O)c(F)c3)ncc2N(C)C(=O)C1C (configuration not stated)
Reply: Criterion met

----------
System: UACC-257 melanoma
Assay: NCI tumour cell line growth inhibition, 48 h
Attribute measured: TGI

Would you please look over these solved cases?
{"Compound": "COc1cc(N(CCC#N)CCC#N)ccc1/C(N=Nc1ccc([N+](=O)[O-])cc1)=N/NC(=O)c1cc(Br)ccc1O", "TGI": "> 150 µg/mL"}
{"Compound": "O=c1c2sc(=S)n(-c3ccc(F)cc3)c2ncn1Cc1ccc(F)cc1F", "TGI": "> 100 µM"}
{"Compound": "COc1cc2cc3c4c(cc(OC)c(OC)c4c2cc1OC)CCN3C(=O)OCCN1CCNCC1", "TGI": "29.1 µM"}
{"Compound": "CN(CC(=O)O)c1ncc2c(n1)-c1ccccc1SC2", "TGI": "> 100 µM"}
{"Compound": "Cc1ccc(S(=O)(=O)N(CC(=O)O)c2ccccc2)cc1", "TGI": "> 100 µM"}

The value of TGI measured for the compound C=C(c1nc2ccc(Cl)cc2[nH]c1=O)C(O)c1ccc(C(O)C(=O)c2nc3ccc(Cl)cc3[nH]c2=O)cc1 (stereo not given) turned out to be > 100 µM

The value of TGI measured for the compound CCC[CH2][Sn]1([CH2]CCC)[O]N=C(c2ccccc2)C(c2ccccc2)[O]1 (stereo not given) turned out to be 4.51 µM

----------
Test system: UO-31 renal
Assay: NCI tumour cell line growth inhibition, 48 h
Quick list: TGI per entry.

{"Molecule": "CC(C)(C)OC(=O)N1CCc2[nH][nH]c(=O)c2C1", "Value measured": "> 100 µM"}
{"Molecule": "Nc1ccc(Oc2ccc(C34CC5CC6C3CC3CC4C(C5)C6(c4ccc(Oc5ccc(N)cc5)cc4)C3)cc2)cc1", "Value measured": "> 100 µM"}
{"Molecule": "CC1(C)CC(=O)c2[nH]c3ccccc3c2CC(=O)NCCc2cn1cn2", "Value measured": "> 100 µM"}
{"Molecule": "CC(C)N(C(=O)C12C3C4C5(C#N)C3C1(C#N)C5C42I)C(C)C (stereo not given)", "Value measured": "> 100 µM"}
{"Molecule": "COc1cnc2c(c1)C(=O)c1c-2n(CCCNC(C)C)c(=O)c2cc(Cl)ccc12", "Value measured": "2.04 µM"}
{"Molecule": "CC(C)C(=O)[C@@]1(C)SC[C@H]2CCN=C21", "Value measured": "> 100 µM"}
{"Molecule": "Cn1c2c(c3ccccc31)C1CCCCCCC1C1C(=O)OC(=O)C21 (stereo not given)", "Value measured": "> 100 µM"}
{"Molecule": "COc1ccc(CN2C(=O)/C(=C\\C(=O)c3ccc(OCCN4CCCCC4)cc3)c3ccccc32)cc1", "Value measured": "2.92 µM"}
{"Molecule": "O=C(Cc1ccc(/C=C/C(=O)c2ncc[nH]2)cc1)Nc1cc(F)c(F)c(F)c1", "Value measured": "6.56 µM"}
{"Molecule": "COc1ccc(/C=C(/C(=O)N2CCN(c3ccccc3)CC2)c2cc(OC)c(OC)c(OC)c2)cc1O", "Value measured": "90.8 µM"}

Here's the next entry for you.
The value of TGI measured for the molecule Cc1ccc(S(=O)(=O)N(CC(=O)O)c2ccccc2)cc1 turned out to be > 100 µM
